Please respond with reported solubility for every item in the list.
test_description: Solubility at pH 7.4
Type: physicochemical
protocol_conditions: buffer
Please reply with the bare figure in µg/mL and do not write the unit itself.

Exercise: Using the record for `CCCCOc1ccccc1N1CCC(CNC(=O)Nc2c(C(C)C)cc(N)cc2C(C)C)(c2cccc(OC)c2)CC1` , state its measured solubility.
Key: 0.3

Exercise: Recall and state the measured solubility for `CCCCn1c(=O)c(NC(=O)Nc2c(C(C)C)cc(N)cc2C(C)C)c(-c2cccc(OCCCO)c2)c2cccnc21` .
Key: 10

Exercise: Identify measured solubility associated with `COc1cccc(C2(CNC(=O)Nc3c(C(C)C)cc(N)cc3C(C)C)CCN(c3ccccc3OCCCO)CC2)c1.Cl.Cl`
Key: 22

Exercise: # return recorded solubility for input `COc1cccc(C2(CNC(=O)Nc3c(C(C)C)cc(N)cc3C(C)C)CCN(c3ccccc3OCCCN)CC2)c1.Cl`
Key: 32

----------
target: Sterol O-acyltransferase 1 (Rattus norvegicus)
test_description: Inhibition of ACAT in rat macrophages assessed as incorporation of extracellular [3H]-oleic acid-BSA complex into the intracellular cholesteryl ester after 24 hrs
measured_property: pIC50
Recall that pIC50 is obtained by taking minus log10 of the concentration measured in molar.

Exercise: Tell me measured pIC50 for `COc1cccc(C2(CNC(=O)Nc3c(C(C)C)cc(N)cc3C(C)C)CCN(c3ccccc3OCCO)CC2)c1` please.
Key: 7.02

Exercise: Give pIC50 for `COc1cccc(C2(CNC(=O)Nc3c(C(C)C)cc(N)cc3C(C)C)CCN(c3ccccn3)CC2)c1`
Key: 7.49

Exercise: Retrieve pIC50 measured for `COc1cccc(C2(CNC(=O)Nc3c(C(C)C)cc(N)cc3C(C)C)CCN(c3ccccc3OCCCO)CC2)c1.Cl.Cl` and print it.
Key: 7.74

Exercise: Give the reported value of pIC50 for this record: `COc1cccc(C2(CNC(=O)Nc3c(C(C)C)cc(N)cc3C(C)C)CCN(c3ccccc3OCCCN(C)C)CC2)c1.Cl`
Key: 6.62

Exercise: Return reported pIC50. Input molecule: `CCCCOc1ccccc1N1CCC(CNC(=O)Nc2c(C(C)C)cc(N)cc2C(C)C)(c2cccc(OC)c2)CC1`
Key: 7.49

Exercise: Identify measured pIC50 associated with `COc1cccc(C2(CNC(=O)Nc3c(C(C)C)cc(N)cc3C(C)C)CCN(c3ccccc3OC(C)C)CC2)c1`
Key: 7.43

Exercise: Please indicate pIC50 recorded for `COc1ccc(N2CCC(CNC(=O)Nc3c(C(C)C)cc(N)cc3C(C)C)(c3cccc(OC)c3)CC2)cc1`
Key: 6.85

Exercise: Using the record for `COc1ccccc1N1CCC(CNC(=O)Nc2c(C(C)C)cc(N)cc2C(C)C)(c2ccccc2)CC1` , state its measured pIC50.
Key: 7.09

----------
target: UniProtKB O70536
test_description: Inhibition of ACAT in rat macrophages assessed as incorporation of extracellular [3H]-oleic acid-BSA complex into the intracellular cholesteryl ester after 24 hrs
measured_property: pIC50
Units for pIC50: none; it is -log10 of a concentration expressed in mol/L.

Exercise: Hello, please tell me recorded pIC50 for this one: `COc1cccc(C2(CNC(=O)Nc3c(C(C)C)cc(N)cc3C(C)C)CCN(c3ccccc3)CC2)c1`
Key: 7.40

Exercise: Return reported pIC50. Input compound: `CC(C)c1cc(C(C)C)c(CC(=O)NS(=O)(=O)Oc2c(C(C)C)cccc2C(C)C)c(C(C)C)c1`
Key: 6.32

Exercise: Give recorded pIC50. `COc1cccc(C2(CNC(=O)Nc3c(C(C)C)cc(N)cc3C(C)C)CCN(c3ccccc3OC)CC2)c1`
Key: 7.43

Exercise: Read off the recorded pIC50 for `COc1ccccc1N1CCC(CNC(=O)Nc2c(C(C)C)cc(N)cc2C(C)C)(c2cccc(O)c2)CC1`
Key: 6.10

Exercise: # return recorded pIC50 for input `CCCCn1c(=O)c(NC(=O)Nc2c(C(C)C)cc(N)cc2C(C)C)c(-c2cccc(OCCCO)c2)c2cccnc21`
Key: 7.51

Exercise: Give me measured pIC50, please, for this compound: `COc1cccc(C2(CNC(=O)Nc3c(C(C)C)cc(N)cc3C(C)C)CCN(c3ncccc3OC)CC2)c1`
Key: 8.22

----------
Test system: HepG2
test_description: Up-regulation of LDL receptor expression in human HepG2 cells at 100 nM by immunoblot analysis
Format: functional, cell-based
Activity calls are given as the source filed them. No cut-off for these calls is given here.
Choose the fitting class; nothing outside class 1 = active, class 0 = inactive is accepted.

Exercise: What did this assay record as the result for `COc1cccc(C2(CNC(=O)Nc3c(C(C)C)cc(N)cc3C(C)C)CCN(c3ccccc3OCCCO)CC2)c1.Cl.Cl` ?
Key: class 1

Exercise: Record request — test call for `COc1ccc(N2CCC(CNC(=O)Nc3c(C(C)C)cc(N)cc3C(C)C)(c3cccc(OC)c3)CC2)cc1`
Key: class 0

Exercise: Look up the recorded call for `COc1cccc(C2(CNC(=O)Nc3c(C(C)C)cc(N)cc3C(C)C)CCN(c3ccccc3OC(C)C)CC2)c1` in this test.
Key: class 1

Exercise: Record lookup: outcome of this test for `CCCCn1c(=O)c(NC(=O)Nc2c(C(C)C)cc(N)cc2C(C)C)c(-c2cccc(OCCCO)c2)c2cccnc21` ?
Key: class 1

Exercise: Hello, I am checking results. What call was entered for `COc1ccccc1N1CCC(CNC(=O)Nc2c(C(C)C)cc(N)cc2C(C)C)(c2cccc(OCCCO)c2)CC1` ?
Key: class 1

Exercise: For `COc1cccc(C2(CNC(=O)Nc3c(C(C)C)cc(N)cc3C(C)C)CCN(c3ccccc3OC(F)(F)F)CC2)c1` , which call appears in the assay record?
Key: class 1

Exercise: # fetch the recorded call for `COc1cccc(C2(CNC(=O)Nc3c(C(C)C)cc(N)cc3C(C)C)CCN(c3ccccc3OCC(F)(F)F)CC2)c1` here
Key: class 1

Exercise: Look up the recorded call for `CCCCOc1ccccc1N1CCC(CNC(=O)Nc2c(C(C)C)cc(N)cc2C(C)C)(c2cccc(OC)c2)CC1` in this test.
Key: class 1

----------
Tested on: HepG2
test_description: Up-regulation of LDL receptor expression in human HepG2 cells at 100 nM by immunoblot analysis
Assay type: functional, cell-based
The source made the active and inactive calls. The rule behind the calls is not given here.
The reply should name one outcome from 1.0 = active, 0.0 = inactive

Exercise: Kindly provide the recorded test outcome for the following compound: `COc1ccccc1N1CCC(CNC(=O)Nc2c(C(C)C)cc(N)cc2C(C)C)(c2cccc(O)c2)CC1`
Key: 0.0

Exercise: What did the test return for `COc1cccc(C2(CNC(=O)Nc3c(C(C)C)cc(N)cc3C(C)C)CCN(c3ccccc3O)CC2)c1` ?
Key: 0.0

Exercise: Hello, I am checking results. What call was entered for `COc1cccc(C2(CNC(=O)Nc3c(C(C)C)cc(N)cc3C(C)C)CCN(c3ccccc3OCCCN)CC2)c1.Cl` ?
Key: 1.0

Exercise: Could you please tell me the result logged for `COc1ccccc1N1CCC(CNC(=O)Nc2c(C(C)C)cc(N)cc2C(C)C)(c2ccccc2)CC1` in this assay?
Key: 0.0

----------
Exercise: state measured pIC50 for each of the compounds provided.
target: Sterol O-acyltransferase 1 (Rattus norvegicus, UniProt O70536)
Sequence (O70536 whole entry): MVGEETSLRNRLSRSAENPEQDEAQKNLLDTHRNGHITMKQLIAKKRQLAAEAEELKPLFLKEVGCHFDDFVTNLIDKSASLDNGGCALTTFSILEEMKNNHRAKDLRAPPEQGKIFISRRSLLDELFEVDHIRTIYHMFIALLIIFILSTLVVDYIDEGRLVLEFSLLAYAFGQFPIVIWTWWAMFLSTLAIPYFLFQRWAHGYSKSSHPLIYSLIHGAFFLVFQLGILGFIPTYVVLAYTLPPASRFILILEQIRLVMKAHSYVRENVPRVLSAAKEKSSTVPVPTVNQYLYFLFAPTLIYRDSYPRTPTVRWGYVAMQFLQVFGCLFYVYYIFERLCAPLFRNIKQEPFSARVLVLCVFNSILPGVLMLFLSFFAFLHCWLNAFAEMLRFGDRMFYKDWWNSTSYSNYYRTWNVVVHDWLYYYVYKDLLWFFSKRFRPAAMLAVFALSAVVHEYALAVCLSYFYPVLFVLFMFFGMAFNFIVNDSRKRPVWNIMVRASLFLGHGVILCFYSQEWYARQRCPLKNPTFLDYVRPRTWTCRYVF
test_description: Inhibition of ACAT in rat macrophages assessed as incorporation of extracellular [3H]-oleic acid-BSA complex into the intracellular cholesteryl ester after 24 hrs
The value called pIC50 is obtained by taking minus log10 of the concentration in mol/L.

Exercise: Return pIC50 (reported value) for this compound: `COc1cccc(C2(CNC(=O)Nc3c(C(C)C)cc(N)cc3C(C)C)CCN(c3ccccc3OC(F)(F)F)CC2)c1`
Key: 7.17

Exercise: Identify the reported pIC50 for the following entry. `COc1cccc(N2CCC(CNC(=O)Nc3c(C(C)C)cc(N)cc3C(C)C)(c3cccc(OC)c3)CC2)c1`
Key: 7.32

Exercise: Look up pIC50 of `COc1cccc(C2(CNC(=O)Nc3c(C(C)C)cc(N)cc3C(C)C)CCN(c3ncccc3OCCCO)CC2)c1` and report it.
Key: 8.40

Exercise: Hello, please tell me recorded pIC50 for this one: `COc1cccc(C2(CNC(=O)Nc3c(C(C)C)cc(N)cc3C(C)C)CCN(c3ccccc3OCC(F)(F)F)CC2)c1`
Key: 7.32

Exercise: Supply pIC50 value. Item: `COc1ccccc1N1CCC(CNC(=O)Nc2c(C(C)C)cc(N)cc2C(C)C)(c2cccc(OCCCO)c2)CC1`
Key: 7.21

Exercise: Give the reported pIC50 for this compound. `COc1cccc(C2(CNC(=O)Nc3c(C(C)C)cc(N)cc3C(C)C)CCN(c3ccccc3OCCCN)CC2)c1.Cl`
Key: 6.71

Exercise: Return pIC50 for the following compound: `COc1cccc(C2(CNC(=O)Nc3c(C(C)C)cc(N)cc3C(C)C)CCN(c3cccnc3)CC2)c1`
Key: 6.33
